Parameter: enrichment ratio. Scope: all listed entries.
B1: PhoQ; a variant is named by its letters at X, in order, P23837 (parent)
chain: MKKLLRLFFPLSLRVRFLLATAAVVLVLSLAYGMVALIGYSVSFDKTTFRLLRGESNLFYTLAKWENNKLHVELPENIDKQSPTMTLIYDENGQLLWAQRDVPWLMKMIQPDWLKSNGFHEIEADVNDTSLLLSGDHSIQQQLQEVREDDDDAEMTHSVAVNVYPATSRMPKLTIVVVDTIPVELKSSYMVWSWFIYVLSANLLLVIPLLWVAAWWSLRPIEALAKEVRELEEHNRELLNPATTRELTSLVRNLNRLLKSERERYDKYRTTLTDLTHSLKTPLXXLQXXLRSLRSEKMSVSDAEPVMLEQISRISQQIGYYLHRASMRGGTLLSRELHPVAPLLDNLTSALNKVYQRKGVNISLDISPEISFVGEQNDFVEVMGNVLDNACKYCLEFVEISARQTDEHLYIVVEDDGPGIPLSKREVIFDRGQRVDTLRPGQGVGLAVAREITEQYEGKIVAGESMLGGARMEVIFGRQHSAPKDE

Variants of: B1
Experiment: enrichment ratio after two sorts for PhoP signalling (ratio (wild type AVST 3.29)); higher = more functional
Conditions: with PhoP (E. coli)
In all, about 140,000 sequences were measured (“enrichment ratio after two sorts for PhoP signalling”: median about 0, highest 2% from about 11 on). The list comes from a sample in which the highest values are over-represented; it also holds close analogues and randomly drawn sequences.

{"columns": ["MUTATION ANNOTATION", "RELATION OPERATOR", "enrichment ratio"],
 "data": [
  ["KMAQ", "≤", 0.25],
  ["YYHN", "≤", 0.25],
  ["NEQM", "≤", 0.25],
  ["MQLF", "=", 2.66],
  ["SCPM", "=", 7.6],
  ["REII", "≤", 0.25],
  ["SCSR", "=", 6.9],
  ["TEQH", "=", 3.62],
  ["SCPA", "≤", 0.25],
  ["GGCQ", "=", 13.2],
  ["SCSK", "=", 14.3],
  ["SMHP", "≤", 0.25],
  ["SMAQ", "=", 15.5],
  ["VCLI", "=", 5.48],
  ["RWHM", "≤", 0.25],
  ["WEHT", "≤", 0.25],
  ["MEHN", "≤", 0.25],
  ["QYTV", "≤", 0.25],
  ["FSPG", "≤", 0.25],
  ["TEHN", "=", 11.9],
  ["SGRV", "≤", 0.25],
  ["GHCQ", "≤", 0.25]
]}
